# Study target: D(4) dopamine receptor (Homo sapiens, UniProt P21917)
# Sequence (P21917 whole entry): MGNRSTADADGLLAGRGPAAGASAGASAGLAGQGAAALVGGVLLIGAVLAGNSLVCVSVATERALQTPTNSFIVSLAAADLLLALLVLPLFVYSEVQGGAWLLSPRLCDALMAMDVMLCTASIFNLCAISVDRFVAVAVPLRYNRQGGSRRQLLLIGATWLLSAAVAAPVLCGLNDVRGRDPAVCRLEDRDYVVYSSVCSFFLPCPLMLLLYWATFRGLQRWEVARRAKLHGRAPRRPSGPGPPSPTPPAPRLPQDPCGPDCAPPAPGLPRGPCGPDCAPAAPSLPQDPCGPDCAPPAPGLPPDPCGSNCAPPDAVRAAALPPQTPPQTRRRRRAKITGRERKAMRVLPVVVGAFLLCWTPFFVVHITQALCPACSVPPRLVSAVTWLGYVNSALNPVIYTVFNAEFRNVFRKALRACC
# Experiment description: Binding affinity for human recombinant dopamine receptor D4.4
pKi: −log10 of the molar value.
Readout type: pKi

CN(C)CCOc1ccccc1Cc1ccccc1	5.56
c1ccc(Cc2ccccc2OCCN2CCCC2)cc1	5.85
c1ccc(Cc2ccccc2OCCN2CCOCC2)cc1	5.19
COc1ccc2c(c1)OCCN(C)CCc1ccccc1C2	6.26

(I) CN1CCOc2cc(O)ccc2Cc2ccccc2CC1
(II) c1ccc(Cc2ccccc2OCCN2CCCCC2)cc1
(III) c1ccc(Cc2ccccc2OCCCN2CCCC2)cc1
Hey, quick one: sort these by pKi, low to high? Use the labels to give the ranking in the order requested.
II, III, I
(II: 5.35, III: 5.90, I: 6.43)
